Origin of measurements: ChEMBL document CHEMBL1125912

- Tested on: Carbonic anhydrase 2 (Homo sapiens)
- Measurement protocol: Inhibitory activity against human carbonic anhydrase II using pH stat assay
- Assay conditions: read-out: I50
pIC50: −log10 of the molar value.
Metric name: pIC50

NS(=O)(=O)c1ccc(S(=O)(=O)CCO)c(F)c1 | 8.30
NS(=O)(=O)c1ccc(S(=O)(=O)CCO)cc1 | 7.62
NS(=O)(=O)c1ccc(S(=O)(=O)CCCCO)s1 | 8.64

1 = NS(=O)(=O)c1ccc(SCCCO)s1
2 = COC(=O)c1cc(S(N)(=O)=O)ccc1S(=O)(=O)CCO
Input: Hello, I am sorting some records. Could you say if 1 or 2 has the smaller pIC50 value? Please reply using the label of the selected record.
Output: 2
(2: 7.52, 1: 8.00)

====

- Measurement protocol: Dissociation constant (pKa) (determined in 30% EtOH/water)
- Format: physicochemical
Metric name: pKa

NS(=O)(=O)c1ccc(S(=O)(=O)CCCCO)s1 | 8.67
NS(=O)(=O)c1ccc(S(=O)(=O)CCO)s1 | 8.65
NS(=O)(=O)c1ccc(SCCO)c(C(=O)O)c1 | 10.4
NS(=O)(=O)c1ccc(SCCCO)c(C(=O)O)c1 | 9.94
CC(=O)OCCCCCc1ccc(S(N)(=O)=O)cc1 | 10.3
NS(=O)(=O)c1ccc(SCCO)s1 | 9.46
CC(=O)OCCCCc1ccc(S(N)(=O)=O)cc1 | 10.5
COCC(=O)OCCCS(=O)(=O)c1ccc(S(N)(=O)=O)s1 | 8.1
Nc1cc(S(N)(=O)=O)ccc1S(=O)(=O)CCCO | 9.15
NS(=O)(=O)c1ccc(S(=O)(=O)CCCCO)c(F)c1 | 9.18
COC(=O)c1cc(S(N)(=O)=O)ccc1SCCCO | 9.3
NS(=O)(=O)c1ccc(S(=O)(=O)CCO)c(F)c1 | 9
CC(C)(O)CCSc1ccc(S(N)(=O)=O)cc1 | 10

====

- Measurement protocol: Partition coefficient (pH 7.4)
- Type: ADME
- Assay conditions: octanol/water
Metric name: D

Nc1cc(S(N)(=O)=O)ccc1S(=O)(=O)CCO | 0.25
NS(=O)(=O)c1ccc(S(=O)(=O)CCCO)cc1 | 0.23
NS(=O)(=O)c1ccc(SCCCCO)s1 | 9
NS(=O)(=O)c1ccc(S(=O)(=O)CCCCO)cc1 | 0.25
CC(=O)OCCCCCc1ccc(S(N)(=O)=O)cc1 | 73

I = NS(=O)(=O)c1ccc(CCCO)cc1
II = NS(=O)(=O)c1ccc(SCCO)c([N+](=O)[O-])c1
Input: Parameter check: reported D is higher for which label, I or II ? Please reply using the label of the selected record.
Output: II

====

- Measurement protocol: Dissociation constant (pKa) (determined in 30% EtOH/water)
- Format: physicochemical
Metric name: pKa

CC(C)(O)CCS(=O)(=O)c1ccc(S(N)(=O)=O)cc1 | 9.28
CC(=O)OCCCS(=O)(=O)c1ccc(S(N)(=O)=O)s1 | 8.05
NS(=O)(=O)c1ccc(S(=O)(=O)CCCO)c(F)c1 | 9.02
NS(=O)(=O)c1ccc(SCCCO)cc1 | 10.2
NS(=O)(=O)c1cc2c(s1)S(=O)(=O)CCC2O (stereo unspecified) | 8.2
NS(=O)(=O)c1ccc(SCCCO)c(Cl)c1 | 9.45
CC(C)CNCCCS(=O)(=O)c1ccc(S(N)(=O)=O)s1 | 9.3
NS(=O)(=O)c1ccc(SCCO)cc1 | 9.27
NS(=O)(=O)c1ccc(S(=O)(=O)CCCO)c(C(=O)O)c1 | 9.28
NS(=O)(=O)c1ccc(CCCCCO)cc1 | 10.3
NS(=O)(=O)c1ccc(SCCO)c(F)c1 | 9.76
NS(=O)(=O)c1ccc(S(=O)(=O)CCO)cc1 | 9.38
NS(=O)(=O)c1ccc(SCCCCO)s1 | 9.5
NS(=O)(=O)c1ccc(SCCCCCO)cc1 | 9.25
NS(=O)(=O)c1ccc(SCCO)c([N+](=O)[O-])c1 | 9.42
COC(=O)c1cc(S(N)(=O)=O)ccc1S(=O)(=O)CCCO | 8.9
NS(=O)(=O)c1ccc(SCCCCO)c(F)c1 | 9.82
NS(=O)(=O)c1ccc(S(=O)(=O)CCCO)cc1 | 8.98
COC(=O)c1cc(S(N)(=O)=O)ccc1S(=O)(=O)CCO | 9.2
CC(=O)OCCCc1ccc(S(N)(=O)=O)cc1 | 10.2
NS(=O)(=O)c1ccc(CCCCO)cc1 | 10.3
NS(=O)(=O)c1ccc(S(=O)(=O)CC(O)CO)cc1 (stereo unspecified) | 9.35
Nc1cc(S(N)(=O)=O)ccc1S(=O)(=O)CCO | 9.5
CC(=O)OCCS(=O)(=O)c1ccc(S(N)(=O)=O)s1 | 8.65
NS(=O)(=O)c1ccc(CCCO)cc1 | 10.2
NS(=O)(=O)c1ccc(SCCCO)c(F)c1 | 9.64

====

- Tested on: Carbonic anhydrase 2 (Homo sapiens)
- Measurement protocol: Inhibitory activity against human carbonic anhydrase II using pH stat assay
- Assay conditions: read-out: I50
Metric name: IC50 (nM)

Examples with answers:
NS(=O)(=O)c1ccc(S(=O)(=O)CCCO)s1 | 6
Nc1cc(S(N)(=O)=O)ccc1S(=O)(=O)CCO | 51
NS(=O)(=O)c1ccc(S(=O)(=O)CCCCO)c(F)c1 | 4
NS(=O)(=O)c1ccc(SCCCO)c(C(=O)O)c1 | 10000

I = CC(C)CNCCCS(=O)(=O)c1ccc(S(N)(=O)=O)s1
II = NS(=O)(=O)c1ccc(SCCCO)c(Cl)c1
Input: Hello, I am sorting some records. Could you say if I or II has the smaller IC50 value? Please reply using the label of the selected record.
Output: II
(II: 9 nM, I: 18 nM)

====

- Tested on: Carbonic anhydrase 2 (Homo sapiens, UniProt P00918)
- Measurement protocol: Inhibitory activity against human carbonic anhydrase II using pH stat assay
- Assay conditions: read-out: I50
Metric name: IC50 (nM)

NS(=O)(=O)c1ccc(SCCCO)c([N+](=O)[O-])c1 | 23
CC(=O)OCCCS(=O)(=O)c1ccc(S(N)(=O)=O)s1 | 5
NS(=O)(=O)c1ccc(CCCO)c(F)c1 | 20
NS(=O)(=O)c1ccc(CCCCCO)cc1 | 8
NS(=O)(=O)c1ccc(S(=O)(=O)CCCO)c(F)c1 | 4.5

P = NS(=O)(=O)c1ccc(SCCCCO)s1
Q = CC(C)(O)CCSc1ccc(S(N)(=O)=O)cc1
Input: Hello, I am sorting some records. Could you say if P or Q has the smaller IC50 value? Please reply using the label of the selected record.
Output: P

a = NS(=O)(=O)c1ccc(CCCCO)cc1
b = COCC(=O)OCCCS(=O)(=O)c1ccc(S(N)(=O)=O)s1
c = NS(=O)(=O)c1ccc(SCCO)c(F)c1
d = NS(=O)(=O)c1ccc(CCCO)cc1
e = NS(=O)(=O)c1ccc(SCCO)s1
Input: // ascending sort on recorded IC50 // list labels; follow requested order
Output: b, c, a, e, d

====

- Measurement protocol: Solubility (buffer pH 7.4)
- Assay type: physicochemical
- Assay conditions: read-out: S
Metric name: solubility (µg/mL)

Examples with answers:
COC(=O)c1cc(S(N)(=O)=O)ccc1SCCCO | 1300
CC(=O)OCCCc1ccc(S(N)(=O)=O)cc1 | 1600
COC(=O)c1cc(S(N)(=O)=O)ccc1S(=O)(=O)CCCO | 1500
NS(=O)(=O)c1ccc(S(=O)(=O)CCCCO)cc1 | 2100
NS(=O)(=O)c1ccc(SCCO)c(C(=O)O)c1 | 9300
NS(=O)(=O)c1ccc(SCCCO)c([N+](=O)[O-])c1 | 100
NS(=O)(=O)c1ccc(S(=O)(=O)CCCO)cc1 | 7200
NS(=O)(=O)c1ccc(S(=O)(=O)CCCO)c(C(=O)O)c1 | 53000
NS(=O)(=O)c1ccc(S(=O)(=O)CCO)c(F)c1 | 3300
NS(=O)(=O)c1ccc(SCCCO)s1 | 9500

A = NS(=O)(=O)c1ccc(SCCCCO)s1
B = CC(C)COC(=O)OCCCS(=O)(=O)c1ccc(S(N)(=O)=O)s1
Input: Hello, I am sorting some records. Could you say if A or B has the smaller solubility value? Please reply using the label of the selected record.
Output: B

====

- Measurement protocol: Solubility (buffer pH 7.4)
- Assay type: physicochemical
- Assay conditions: read-out: S
Metric name: solubility (µg/mL)

CC(=O)OCCCCc1ccc(S(N)(=O)=O)cc1 | 8000

1 = NS(=O)(=O)c1ccc(S(=O)(=O)CCCO)c(F)c1
2 = NS(=O)(=O)c1ccc(SCCO)c([N+](=O)[O-])c1
3 = NS(=O)(=O)c1ccc(S(=O)(=O)CCCCO)c(F)c1
4 = CC(=O)OCCCS(=O)(=O)c1ccc(S(N)(=O)=O)s1
5 = NS(=O)(=O)c1ccc(CCCO)cc1
Input: Put the entries in order of solubility, starting with the largest number. // list labels; follow requested order
Output: 5, 1, 3, 4, 2

I = NS(=O)(=O)c1ccc(SCCCO)c(C(=O)O)c1
II = COC(=O)c1cc(S(N)(=O)=O)ccc1S(=O)(=O)CCO
III = CC(=O)OCCCCCc1ccc(S(N)(=O)=O)cc1
IV = Nc1cc(S(N)(=O)=O)ccc1S(=O)(=O)CCO
Input: Put the entries in order of solubility, starting with the largest number. // list labels; follow requested order
Output: II, IV, I, III

P = NS(=O)(=O)c1ccc(S(=O)(=O)CCO)cc1
Q = NS(=O)(=O)c1ccc(SCCO)s1
Input: Hello, I am sorting some records. Could you say if P or Q has the smaller solubility value? Please reply using the label of the selected record.
Output: P
(P: 6600 µg/mL, Q: 49000 µg/mL)
